Assay: qHTS assay to identify small molecule agonists of the RXR signaling pathway - cell viability counter screen (AID 1159529);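 also: HEK 293T cells carrying an RXR-alpha UAS beta-lactamase reporter; % is scaled to controls: 0 for no effect and ±100 for the full control effect; nearly all actives have a fitted effect of over 50% in size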
Details: RXR-alpha-bla HEK293T viability, CellTiter-Glo, 16 h; series mostly up to 76.8 µM
Records with an inconclusive call do not appear. Calls of active or inactive are those of the source. Calls follow the shape of the dose curve; as a rule, active = well fitted cell-killing curve with a large enough effect in the repeat runs; inconclusive = weak or mixed curves, or effect the other way; inactive = no such curve, though single readings can be large or run the other way.
outcome.measure: activity change, negative = cytotoxicity

Field activity change, negative = cytotoxicity (entry N[C@@H](CSSC[C@H](N)C(=O)O)C(=O)O ) reads -20.1% [at 0.29 µM] (inactive)

Field activity change, negative = cytotoxicity (entry O=C=NCc1cccc(CN=C=O)c1 ) reads -2.82% [at 15.8 µM] (inactive)

Field activity change, negative = cytotoxicity (entry CCN1CCN(c2cc(-c3ccc(F)cc3)c3c(n2)CCCCCC3)CC1 ) reads -22.5% [at 15.8 µM] (inactive)

Field activity change, negative = cytotoxicity (entry O=S(=O)(O)c1cc(S(=O)(=O)O)c2ccc3c(S(=O)(=O)O)cc(S(=O)(=O)O)c4ccc1c2c43 ) reads -4.37% [at 15.8 µM] (inactive)

Field activity change, negative = cytotoxicity (entry C=C/C=C/C=C/CCCCC ) reads -9.45% [at 15.8 µM] (inactive)
